measurementConditions: in isopropanol, 303.15 K

smilesText	solubility (mole fraction)
O=C(O)c1cc([N+](=O)[O-])ccc1O	0.046

###

measurementConditions: in ethylene glycol, 318.15 K
readoutName: solubility (mole fraction)

smilesText	readoutName	numericValue
O=C(O)c1cc([N+](=O)[O-])ccc1O	solubility (mole fraction)	0.035

###

measurementConditions: in isobutanol, 293.15 K
readoutName: solubility (mole fraction)

smilesText	numericValue
O=C(O)c1cc([N+](=O)[O-])ccc1O	0.0211

###

measurementConditions: in DMF, 283.15 K
readoutName: solubility (mole fraction)

smilesText	numericValue
O=C(O)c1cc([N+](=O)[O-])ccc1O	0.0819

###

measurementConditions: in ethyl acetate, 313.15 K
readoutName: solubility (mole fraction)

smilesText	numericValue
O=C(O)c1cc([N+](=O)[O-])ccc1O	0.0509

###

measurementConditions: in isopropanol, 293.15 K

smilesText	solubility (mole fraction)
O=C(O)c1cc([N+](=O)[O-])ccc1O	0.0367

###

measurementConditions: in isopropanol, 308.15 K

smilesText	solubility (mole fraction)
O=C(O)c1cc([N+](=O)[O-])ccc1O	0.052

###

measurementConditions: in DMF, 293.15 K
readoutName: solubility (mole fraction)

smilesText	numericValue
O=C(O)c1cc([N+](=O)[O-])ccc1O	0.0993

###

measurementConditions: in ethylene glycol, 323.15 K
readoutName: solubility (mole fraction)

smilesText	numericValue
O=C(O)c1cc([N+](=O)[O-])ccc1O	0.0393

###

measurementConditions: in acetonitrile, 318.15 K

smilesText	solubility (mole fraction)
O=C(O)c1cc([N+](=O)[O-])ccc1O	0.0908

###

measurementConditions: in n-butanol, 323.15 K

smilesText	solubility (mole fraction)
O=C(O)c1cc([N+](=O)[O-])ccc1O	0.06

###

measurementConditions: in ethylene glycol, 288.15 K

smilesText	solubility (mole fraction)
O=C(O)c1cc([N+](=O)[O-])ccc1O	0.0142

###

measurementConditions: in ethylene glycol, 298.15 K

smilesText	solubility (mole fraction)
O=C(O)c1cc([N+](=O)[O-])ccc1O	0.0197

###

measurementConditions: in ethanol, 308.15 K
readoutName: solubility (mole fraction)

smilesText	readoutName	result
O=C(O)c1cc([N+](=O)[O-])ccc1O	solubility (mole fraction)	0.0541

###

measurementConditions: in DMF, 308.15 K
readoutName: solubility (mole fraction)

smilesText	numericValue
O=C(O)c1cc([N+](=O)[O-])ccc1O	0.143

###

measurementConditions: in NMP, 318.15 K

smilesText	solubility (mole fraction)
O=C(O)c1cc([N+](=O)[O-])ccc1O	0.204

###

measurementConditions: in isobutanol, 313.15 K

smilesText	solubility (mole fraction)
O=C(O)c1cc([N+](=O)[O-])ccc1O	0.0383

###

measurementConditions: in isopropanol, 288.15 K

smilesText	solubility (mole fraction)
O=C(O)c1cc([N+](=O)[O-])ccc1O	0.0322

###

measurementConditions: in n-propanol, 293.15 K

smilesText	solubility (mole fraction)
O=C(O)c1cc([N+](=O)[O-])ccc1O	0.0342

###

measurementConditions: in ethylene glycol, 303.15 K

smilesText	solubility (mole fraction)
O=C(O)c1cc([N+](=O)[O-])ccc1O	0.0233

###

measurementConditions: in methanol, 303.15 K

smilesText	solubility (mole fraction)
O=C(O)c1cc([N+](=O)[O-])ccc1O	0.0538
